These measurements were taken from paper PMC4865845.

Answer each item with its documented Score_si4.
- System: CHIKV
- Assay type: cell-based, chikungunya virus
Answers are plain numbers.

Solved entries:
> print(dat)
                                  substance  resultnumber
1  s195939 (sense GCGGCTGATTTATCTCTGC; chemistry not given here) [reference compound]         -0.22
2  s37727 (GTAGCAGTGTGGTAGGATA; chemistry not given here)         -0.44
3  s38778 (CCCTTCCTCTATTCGAACA; chemistry not given here)         -0.27
4  Hs_WIG1_2 (CAGGCTCATTATCAGGGTAAA; chemistry not given here)         -0.33
5  s24923 (sense GGAAGTGAAGGAGTAAGTA; chemistry not given here) [reference compound]         -0.27
6  Hs_SREBF2_1 (sense ACCCATAATATCATTGAGAAA; chemistry not given here)          1.37
7  Hs_EIF2B5_1 (CTTGTATATGTTAATATTAAA; chemistry not given here)          1.02
8  s37714 (GCTCCTCAAAGGATATGAA; chemistry not given here)         -0.71

For each of the items listed, what is its Score_si4?
1. s8543 (CCTCAACAGTCACGTCAGA; chemistry not given here)
2. Hs_HMGA1L4_2 (sense CTGGCTGGATGAAGACAGTAA; chemistry not given here)
3. Hs_SDFR1_11 (sense TACATAAAGATGAGTAATATA; chemistry not given here) [reference compound]

Response given:
1: -0.08; 2: 0.45; 3: -1.37
